# Assay Summary: Solubility of the drugs in MFD solution, PBS or water
# Format: physicochemical
# Test Context: MFD solution, fassgf or other biorelevant; read-out: solubility in MFD solution

Smiles Record: Cc1ccc(-c2cc(C(F)(F)F)nn2-c2ccc(S(N)(=O)=O)cc2)cc1
solubility: ~40 µg/mL

Smiles Record: CC[C@@H]1C[C@H](N(Cc2cc(C(F)(F)F)cc(C(F)(F)F)c2)C(C)=O)c2cc(C(F)(F)F)ccc2N1C(=O)OC(C)C
solubility: ~11 µg/mL

----------
# Assay Summary: Log P value of the drugs
# Format: physicochemical
# Test Context: octanol/water
Endpoint: logP

Molecule: c1cc[c]([Bi]([c]2ccccc2)[c]2ccccc2)cc1 [Drug 5, triphenyl bismuth]
Endpoint: logP
Measured: 6

----------
# Assay Summary: Solubility of the drugs in MFD solution, PBS or water
# Format: physicochemical
# Test Context: PBS, aqueous buffer; read-out: solubility in PBS

Smiles Record: CCc1cc(Oc2cccc(N(Cc3cccc(OC(F)(F)C(F)F)c3)C[C@@H](O)C(F)(F)F)c2)ccc1Cl
solubility: < 0.1 µg/mL
